assay: Clearance in mouse at 1 mg/kg, iv; assay type: ADME, organism-based; conditions: in vivo
MEASURED QUANTITY: clearance

Please fill in: clearance reported for `O=C(c1cc(C(F)(F)F)cc(C(F)(F)F)c1)c1cn(-c2cc(Cl)ccc2O)nn1` = 15.5 mL/min/kg

###

experiment: Half life in mouse liver microsomes; type: ADME
Quick list: half-life per entry.
Record the value in h, omitting the unit from your answer.

smiles_string=Cc1cc(C)cc(C(=O)NC(=S)Nc2cc([N+](=O)[O-])ccc2O)c1 measured_result=0.03

Please fill in: half-life reported for `O=C(c1cc(C(F)(F)F)cc(C(F)(F)F)c1)c1cn(-c2cc(Cl)ccc2O)nn1` = 1.98

Just for reference, ChEMBL document CHEMBL3596181 is where these values come from.
